molecular target: Beta-lactamase (Escherichia coli (strain K12), UniProt P00811); test: Beta-lactamase AmpC Inhibition Assay; settings: pH 7
Sequence (P00811 whole entry): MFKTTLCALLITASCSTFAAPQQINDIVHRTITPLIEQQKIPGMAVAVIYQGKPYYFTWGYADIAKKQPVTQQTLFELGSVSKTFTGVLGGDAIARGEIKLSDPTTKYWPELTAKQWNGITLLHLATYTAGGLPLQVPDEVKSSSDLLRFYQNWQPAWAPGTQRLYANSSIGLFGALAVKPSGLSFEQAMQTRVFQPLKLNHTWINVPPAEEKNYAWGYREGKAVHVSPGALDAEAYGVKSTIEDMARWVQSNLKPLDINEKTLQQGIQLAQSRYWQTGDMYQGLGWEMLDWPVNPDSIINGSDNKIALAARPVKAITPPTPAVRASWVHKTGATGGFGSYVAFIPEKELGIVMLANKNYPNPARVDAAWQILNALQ
# pKi values compiled below
pKi is a log-scale quantity: -log10 of the concentration expressed in molar.

In the examples that follow, each entry is paired with its recorded pKi.
>  <COMPOUND>
O=C1c2ccccc2C(=O)N1CCc1nnn[nH]1 [CID7129233]

>  <pKi>
2.48

$$$$
>  <COMPOUND>
O=C(O)CN1C(=O)O[C@@H](c2ccccc2)C1=O [CID25181261]

>  <pKi>
2.46

$$$$
>  <COMPOUND>
C[C@@H](C(=O)O)N1C(=O)C2C3CCC(C3)C2C1=O (stereo partly specified) [CID25181259]

>  <pKi>
2.66

$$$$
>  <COMPOUND>
O=c1c2c3c(sc2ncn1Cc1nn[nH]n1)CCCC3 [CID 7263523]

>  <pKi>
2.82

$$$$
>  <COMPOUND>
CCc1c(C)[nH]n(-c2nnn[nH]2)c1=O [CID7357365]

>  <pKi>
2.51

$$$$

Prompt: // lookup pKi for O=C(Nc1cccc(-c2nnn[nH]2)c1)c1cccc(F)c1 [CID8067740]
Completion: 2.55
